target: recombinant human PDE11A (Homo sapiens, UniProt Q9HCR9); construct: made in house; host or cells: Sf9 insect cells (baculovirus); assay: PDE11A inhibition, SPA-based cGMP hydrolysis assay; assay type: biochemical
Sequence (Q9HCR9 445-933): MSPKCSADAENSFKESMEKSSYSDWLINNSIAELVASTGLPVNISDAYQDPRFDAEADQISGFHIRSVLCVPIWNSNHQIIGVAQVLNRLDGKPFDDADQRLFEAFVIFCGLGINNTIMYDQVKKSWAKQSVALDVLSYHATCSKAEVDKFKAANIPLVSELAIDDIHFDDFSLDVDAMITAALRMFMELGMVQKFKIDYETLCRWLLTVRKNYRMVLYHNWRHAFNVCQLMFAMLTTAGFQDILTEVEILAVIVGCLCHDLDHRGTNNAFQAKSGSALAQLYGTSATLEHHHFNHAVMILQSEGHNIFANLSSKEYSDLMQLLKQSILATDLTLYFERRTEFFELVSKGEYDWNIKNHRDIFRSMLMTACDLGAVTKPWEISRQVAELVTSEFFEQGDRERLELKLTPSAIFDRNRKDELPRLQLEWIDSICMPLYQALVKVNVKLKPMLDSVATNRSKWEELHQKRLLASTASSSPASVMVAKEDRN
pIC50: −log10 of the molar value. Where a name gives a salt, the structure may show the parent alone.
OUTCOME MEASURE: pIC50

>>> experimental_result("O=C(O)C1CCN(c2nc(NCc3ccc4c(c3)OCO4)c3cc(Cl)ccc3n2)CC1 [Compound E4021, monohydrochloride]")
6.24

----------
molecular target: recombinant human PDE9 (Homo sapiens, UniProt O76083); assay: PDE9 inhibition, SPA-based assay; conditions: Sf9 cells, geometric mean of at least 3 determinations
Sequence (O76083 whole entry): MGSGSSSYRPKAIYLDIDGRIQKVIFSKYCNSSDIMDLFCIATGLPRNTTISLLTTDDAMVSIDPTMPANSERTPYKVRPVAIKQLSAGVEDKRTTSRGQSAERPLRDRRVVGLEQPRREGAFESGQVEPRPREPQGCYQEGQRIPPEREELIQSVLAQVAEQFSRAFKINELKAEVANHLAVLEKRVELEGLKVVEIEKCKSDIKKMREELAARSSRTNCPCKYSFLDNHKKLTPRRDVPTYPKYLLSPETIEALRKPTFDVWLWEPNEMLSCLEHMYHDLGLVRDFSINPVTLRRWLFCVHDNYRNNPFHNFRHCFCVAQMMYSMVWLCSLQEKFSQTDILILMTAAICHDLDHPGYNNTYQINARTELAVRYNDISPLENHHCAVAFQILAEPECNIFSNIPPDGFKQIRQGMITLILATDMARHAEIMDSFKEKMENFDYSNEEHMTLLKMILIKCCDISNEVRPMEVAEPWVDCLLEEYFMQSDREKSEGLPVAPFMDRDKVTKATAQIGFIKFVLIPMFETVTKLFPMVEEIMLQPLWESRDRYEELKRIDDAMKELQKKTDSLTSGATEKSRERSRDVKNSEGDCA
pIC50: −log10 of the molar value. Counter-ions that a name gives are not always drawn.
Each entry below carries its reported pIC50.
OUTCOME MEASURE: pIC50

>>> experimental_result("O=C(O)C1CCN(c2nc(NCc3ccc4c(c3)OCO4)c3cc(Cl)ccc3n2)CC1 [Compound E4021, monohydrochloride]")
"< 4.00"
>>> experimental_result("Clc1ccc2nc(-n3ccnc3)nc(NCc3ccccc3)c2c1 [UK-235,187, dihydrochloride]")
"< 4.00"
>>> experimental_result("CN1CC(=O)N2[C@H](c3ccc4c(c3)OCO4)c3[nH]c4ccccc4c3C[C@@H]2C1=O")
"< 4.00"

----------
Each entry below carries its reported pIC50.
biological target: recombinant human PDE7 (Homo sapiens); assay: PDE7 inhibition, SPA-based assay; conditions: Sf9 cells, geometric mean of at least 3 determinations
Sequence (Q13946 whole entry): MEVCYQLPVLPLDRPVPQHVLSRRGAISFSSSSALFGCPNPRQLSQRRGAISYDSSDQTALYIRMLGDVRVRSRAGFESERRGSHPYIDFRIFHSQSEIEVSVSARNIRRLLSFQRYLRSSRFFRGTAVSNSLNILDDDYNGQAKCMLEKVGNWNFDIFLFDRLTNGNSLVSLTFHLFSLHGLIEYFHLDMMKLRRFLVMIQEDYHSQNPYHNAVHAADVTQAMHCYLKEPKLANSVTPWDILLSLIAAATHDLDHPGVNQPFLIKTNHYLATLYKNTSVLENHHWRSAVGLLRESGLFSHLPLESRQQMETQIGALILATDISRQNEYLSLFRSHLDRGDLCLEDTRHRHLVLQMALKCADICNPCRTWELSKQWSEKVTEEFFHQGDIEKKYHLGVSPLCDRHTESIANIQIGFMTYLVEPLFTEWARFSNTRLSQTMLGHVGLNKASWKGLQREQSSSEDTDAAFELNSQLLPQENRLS
pIC50: −log10 of the molar value. Where a name gives a salt, the structure may show the parent alone.
OUTCOME MEASURE: pIC50

>>> experimental_result("O=C(O)C1CCN(c2nc(NCc3ccc4c(c3)OCO4)c3cc(Cl)ccc3n2)CC1 [Compound E4021, monohydrochloride]")
"< 4.00"
>>> experimental_result("CCCc1nn(C)c2c(=O)[nH]c(-c3cc(S(=O)(=O)N4CCN(C)CC4)ccc3OCC)nc12")
4.71
>>> experimental_result("CN1CC(=O)N2[C@H](c3ccc4c(c3)OCO4)c3[nH]c4ccccc4c3C[C@@H]2C1=O")
"< 4.00"

----------
Each entry below carries its reported pIC50.
target: recombinant human PDE8 (Homo sapiens); test: PDE8 inhibition, SPA-based assay; details: Sf9 cells, geometric mean of at least 3 determinations
Sequence (O60658 whole entry): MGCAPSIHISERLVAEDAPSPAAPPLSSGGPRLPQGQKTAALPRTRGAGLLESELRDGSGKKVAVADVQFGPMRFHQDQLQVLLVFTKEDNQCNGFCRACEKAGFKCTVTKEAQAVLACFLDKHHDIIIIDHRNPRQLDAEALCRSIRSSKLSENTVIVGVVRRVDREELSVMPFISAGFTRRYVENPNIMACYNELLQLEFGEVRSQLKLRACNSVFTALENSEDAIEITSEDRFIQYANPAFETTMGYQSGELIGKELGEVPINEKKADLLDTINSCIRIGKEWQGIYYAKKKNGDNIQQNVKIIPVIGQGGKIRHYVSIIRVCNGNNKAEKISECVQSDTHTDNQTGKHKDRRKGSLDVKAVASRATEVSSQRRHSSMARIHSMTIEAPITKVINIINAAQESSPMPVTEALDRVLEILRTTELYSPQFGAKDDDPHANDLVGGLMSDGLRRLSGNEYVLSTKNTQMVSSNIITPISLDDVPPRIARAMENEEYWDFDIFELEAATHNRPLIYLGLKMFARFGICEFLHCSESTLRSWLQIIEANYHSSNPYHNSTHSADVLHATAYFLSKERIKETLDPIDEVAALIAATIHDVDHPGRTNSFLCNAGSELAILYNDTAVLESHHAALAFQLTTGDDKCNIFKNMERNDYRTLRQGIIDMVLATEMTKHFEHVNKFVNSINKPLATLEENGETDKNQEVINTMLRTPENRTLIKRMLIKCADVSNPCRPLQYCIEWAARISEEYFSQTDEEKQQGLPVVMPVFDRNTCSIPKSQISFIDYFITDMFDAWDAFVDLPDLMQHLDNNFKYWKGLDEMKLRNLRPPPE
pIC50: −log10 of the molar value. Where a name gives a salt, the structure may show the parent alone.
OUTCOME MEASURE: pIC50

>>> experimental_result("O=C(O)C1CCN(c2nc(NCc3ccc4c(c3)OCO4)c3cc(Cl)ccc3n2)CC1 [Compound E4021, monohydrochloride]")
"< 4.00"
>>> experimental_result("CN1CC(=O)N2[C@H](c3ccc4c(c3)OCO4)c3[nH]c4ccccc4c3C[C@@H]2C1=O [IC351]")
"< 4.00"

----------
biological target: PDE6 (Bos taurus, UniProt P11541+P23439); construct: PDE6 was isolated from bovine retina; assay: PDE6 inhibition, SPA-based cGMP hydrolysis assay; conditions: PDE6 isolated from bovine retina; geometric mean of at least 3 determinations
Sequence (P11541 2-856 limits assumed): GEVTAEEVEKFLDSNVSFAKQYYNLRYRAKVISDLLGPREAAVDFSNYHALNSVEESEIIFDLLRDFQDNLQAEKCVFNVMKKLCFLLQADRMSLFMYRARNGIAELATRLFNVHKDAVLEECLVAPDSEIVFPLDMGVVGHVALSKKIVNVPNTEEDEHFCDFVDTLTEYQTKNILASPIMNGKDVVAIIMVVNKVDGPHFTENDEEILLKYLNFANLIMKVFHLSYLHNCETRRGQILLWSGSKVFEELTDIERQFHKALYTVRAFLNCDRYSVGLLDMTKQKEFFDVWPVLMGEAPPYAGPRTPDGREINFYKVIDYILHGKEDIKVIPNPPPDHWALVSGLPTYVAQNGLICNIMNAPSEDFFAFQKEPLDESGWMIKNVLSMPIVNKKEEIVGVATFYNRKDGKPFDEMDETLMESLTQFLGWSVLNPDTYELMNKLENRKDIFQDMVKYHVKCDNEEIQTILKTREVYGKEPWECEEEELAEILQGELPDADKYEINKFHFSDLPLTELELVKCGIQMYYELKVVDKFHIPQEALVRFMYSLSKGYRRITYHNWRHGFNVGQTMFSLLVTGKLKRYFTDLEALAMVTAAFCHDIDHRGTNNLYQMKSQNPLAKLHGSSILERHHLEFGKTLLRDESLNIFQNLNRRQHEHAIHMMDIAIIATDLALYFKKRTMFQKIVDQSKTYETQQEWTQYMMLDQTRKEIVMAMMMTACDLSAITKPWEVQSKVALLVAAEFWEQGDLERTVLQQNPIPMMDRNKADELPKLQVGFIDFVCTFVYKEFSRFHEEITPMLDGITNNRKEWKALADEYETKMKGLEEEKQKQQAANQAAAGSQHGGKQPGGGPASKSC
Sequence (P23439 2-850 limits assumed): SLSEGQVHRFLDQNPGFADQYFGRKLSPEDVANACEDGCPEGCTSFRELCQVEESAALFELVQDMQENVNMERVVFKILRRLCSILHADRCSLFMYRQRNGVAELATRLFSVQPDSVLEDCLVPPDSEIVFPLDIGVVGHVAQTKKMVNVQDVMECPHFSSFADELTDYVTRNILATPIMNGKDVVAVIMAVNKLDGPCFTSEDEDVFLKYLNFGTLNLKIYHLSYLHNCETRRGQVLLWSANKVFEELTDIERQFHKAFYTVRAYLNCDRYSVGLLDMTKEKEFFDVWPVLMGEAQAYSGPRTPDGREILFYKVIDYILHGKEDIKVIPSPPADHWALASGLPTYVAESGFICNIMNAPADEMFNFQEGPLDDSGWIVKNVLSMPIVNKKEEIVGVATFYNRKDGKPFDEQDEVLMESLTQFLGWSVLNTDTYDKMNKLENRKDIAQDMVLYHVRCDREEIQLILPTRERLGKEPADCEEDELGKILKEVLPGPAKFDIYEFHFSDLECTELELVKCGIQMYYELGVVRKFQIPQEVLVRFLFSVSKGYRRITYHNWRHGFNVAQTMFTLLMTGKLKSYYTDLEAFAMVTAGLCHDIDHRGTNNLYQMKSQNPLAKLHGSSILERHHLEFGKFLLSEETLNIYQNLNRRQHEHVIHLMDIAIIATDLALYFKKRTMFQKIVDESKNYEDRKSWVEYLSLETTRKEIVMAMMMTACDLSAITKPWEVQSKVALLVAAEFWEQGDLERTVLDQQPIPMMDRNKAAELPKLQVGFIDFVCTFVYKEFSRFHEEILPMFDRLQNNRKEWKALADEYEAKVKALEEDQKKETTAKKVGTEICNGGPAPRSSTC
pIC50: −log10 of the molar value. Counter-ions that a name gives are not always drawn.
OUTCOME MEASURE: pIC50

>>> experimental_result("CN1CC(=O)N2[C@H](c3ccc4c(c3)OCO4)c3[nH]c4ccccc4c3C[C@@H]2C1=O [IC351]")
5.82
>>> experimental_result("O=C(O)C1CCN(c2nc(NCc3ccc4c(c3)OCO4)c3cc(Cl)ccc3n2)CC1 [Compound E4021, monohydrochloride]")
8.33
>>> experimental_result("Clc1ccc2nc(-n3ccnc3)nc(NCc3ccccc3)c2c1 [UK-235,187, dihydrochloride]")
6.00
